# inhibition annotations
Target: RAF proto-oncogene serine/threonine-protein kinase (Homo sapiens, UniProt P04049)
Sequence (P04049 whole entry): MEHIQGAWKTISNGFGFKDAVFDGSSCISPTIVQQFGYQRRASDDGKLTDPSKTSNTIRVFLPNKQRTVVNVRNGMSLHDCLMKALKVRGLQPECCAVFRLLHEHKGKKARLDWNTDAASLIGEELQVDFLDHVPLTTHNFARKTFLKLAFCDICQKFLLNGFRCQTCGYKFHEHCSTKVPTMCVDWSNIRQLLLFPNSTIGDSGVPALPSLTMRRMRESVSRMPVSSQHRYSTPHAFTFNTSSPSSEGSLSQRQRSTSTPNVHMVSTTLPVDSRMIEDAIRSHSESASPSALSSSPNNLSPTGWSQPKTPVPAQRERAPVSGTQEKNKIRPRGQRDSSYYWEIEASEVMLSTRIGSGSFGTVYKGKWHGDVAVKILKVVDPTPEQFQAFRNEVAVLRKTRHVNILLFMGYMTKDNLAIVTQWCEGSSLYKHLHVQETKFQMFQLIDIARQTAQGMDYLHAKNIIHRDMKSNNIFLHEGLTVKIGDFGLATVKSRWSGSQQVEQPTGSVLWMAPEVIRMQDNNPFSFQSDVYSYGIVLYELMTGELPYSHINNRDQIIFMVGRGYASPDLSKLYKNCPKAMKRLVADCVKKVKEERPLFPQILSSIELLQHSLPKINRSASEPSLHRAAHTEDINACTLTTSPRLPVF
Assay: Inhibitory activity against raf kinase at 25 uM concentration.
measurementLabel: inhibition

>>> df
                           structurenotation  reported
 0  COC(=O)c1sc(C(C)(C)C)cc1NC(=O)Nc1ccc([N+](=O)[O-])cc1       40%
 1  COC(=O)c1nc(C(C)(C)C)sc1NC(=O)Nc1ccc(C)cc1       52%
 2  COC(=O)c1sc(C(=O)O)cc1NC(=O)Nc1ccc(C)cc1       32%
 3       COC(=O)c1sc(N)cc1NC(=O)Nc1ccc(C)cc1       25%
 4  CCOC(=O)c1cc(C(C)(C)C)[nH]c1NC(=O)Nc1ccc(C)cc1       44%
 5       Cc1ccc(NC(=O)Nc2nnc(C(C)(C)C)s2)cc1       18%
 6  COC(=O)c1sc(C(C)(C)C)cc1NC(=O)Nc1cc(C)on1       37%
 7       Cc1ccc(NC(=O)Nc2cc(C(C)(C)C)on2)cc1       44%
 8  COC(=O)c1sc(C(C)(C)C)cc1NC(=O)Nc1ccc(NC(C)=O)cc1       33%
 9  COC(=O)c1sc(C(C)(C)C)cc1NC(=O)Nc1cc(C2CC2)nn1C       18%
10  Cc1ccc(NC(=O)Nc2cc(C(C)(C)C)sc2CNC(=O)CN)cc1       46%
11  COC(=O)c1[nH]c(C(C)(C)C)nc1NC(=O)Nc1ccc(C)cc1       23%
12  COC(=O)c1sc(CC(C)C)cc1NC(=O)Nc1ccc(C)cc1       25%
13  COC(=O)c1sc(C(C)(C)C)cc1NC(=O)Nc1ccn(C)c1       34%
14  CC(=O)c1sc(C(C)(C)C)cc1NC(=O)Nc1ccc(C)cc1       18%
15  COC(=O)c1sc(C(C)(C)C)cc1NC(=O)Nc1ccc(C(F)(F)F)cc1       31%
16  COC(=O)c1nc(C(C)(C)C)oc1NC(=O)Nc1ccc(C)cc1       38%
17  COC(=O)c1cc(NC(=O)Nc2ccc(C)cc2)c(C(=O)OC)s1       32%
18  COC(=O)c1sc(C(C)(C)C)cc1NC(=O)Nc1nc(SC)n(C)n1        2%
19      COC(=O)c1sc(CO)cc1NC(=O)Nc1ccc(C)cc1       24%
20    Cc1ccc(NC(=O)Nc2sc(C(C)(C)C)cc2C#N)cc1       46%
21  COC(=O)c1sc(C(C)(C)C)cc1NC(=O)Nc1nc(C)co1       18%
22  COC(=O)c1sc(C(C)(C)C)cc1NC(=O)Nc1ccc(C)cc1C       45%

Source of measurements: ChEMBL document CHEMBL1133818
